system: NCI-H460 lung; assay: NCI-60 one-dose screen, 48 h (100 = growth as untreated, 0 = no growth, -100 = all killed); settings: 10 µM
Compounds without any hit were thinned out: in the full panel of roughly 83,000, 20% have a hit.

# COMPOUND, growth [%]
measured = [
    ("c1ccc(CCCCc2ccc3ccccc3n2)cc1", 105),
    ("CC(C)(C)c1ccc(S(=O)(=O)N[C@H]2CC[C@H]3[C@@H]4CCc5cc(O)ccc5[C@H]4CC[C@]23C)cc1", 33.7),
    ("Cc1ccc2nc(Cl)c(-c3nc4ccccc4o3)cc2c1", 106),
    ("CCNc1nc(C(F)(F)F)nc2c1sc(=S)n2-c1ccccc1", 100),
    ("Cc1c(C(N)=O)sc2c1c(=O)n(Cc1ccccc1)c1nnc(-c3ccc(Br)cc3)n21", 4.4),
    ("O=C(O)Cc1ccc(O)c(O)c1", 100),
    ("COc1cc(/C=C/c2cc(/C=C/c3ccc(O)c(OC)c3)nc(N)n2)ccc1O", 5.54),
    ("CC[C@H]1OC(=O)[C@H](C)[C@@H](O[C@H]2C[C@@](C)(OC)[C@@H](O)[C@H](C)O2)[C@H](C)[C@@H](O[C@@H]2O[C@H](C)C[C@H](N(C)C)[C@H]2O)[C@](C)(OC)C/C(C)=C2/O[C@@]1(C)C=C2C", -49.6),
    ("Nc1ccc(CC[C@H]2CCC/C=C/[C@@H]3C[C@H](O)C[C@H]3[C@H](O)/C=C/C(=O)O2)cc1", 10.5),
    ("C=CCSC(CC)(CC)C(=O)NC", 103),
    ("Nc1nc(-c2cccnc2)nc2c1sc(=S)n2-c1ccccc1", 97.2),
    ("COc1ccc(-c2n[nH]nc2-c2cc(OC)c(OC)c(OC)c2)cc1", 2.7),
    ("N#CC1=CC2CN(Cc3ccccc3)C1C1C(=O)N(c3ccccc3)C(=O)C21 (stereo not drawn)", 101),
    ("COc1ccc(/C=c2\\sc3n(c2=O)C(c2cc(OC)c(OC)c(OC)c2)C=C(c2ccc(OC)c(OC)c2)N=3)cc1OC (stereo not drawn)", 107),
    ("CN(C)CCOc1cccc(NC2=C(Cl)C(=O)C(Nc3cccc(OCCN(C)C)c3)=C(Cl)C2=O)c1", 55.4),
    ("CN1C(C(=O)Nc2ccccn2)=C(O)c2sc(Cl)cc2S1(=O)=O", 99.9),
    ("CCCc1nc(C(C)(C)O)c(C(=O)O)n1Cc1ccc(-c2ccccc2-c2nn[nH]n2)cc1", 105),
    ("Nc1ncc(-c2cnn(C3CCNCC3)c2)cc1-c1nc2ccccc2o1", -0.928),
    ("CS(=O)(=O)c1nccc(-c2c(-c3ccc(OCCc4ccccc4)cc3)nc3sccn23)n1", 101),
    ("Cc1c(Cl)cccc1NC(=O)CCCl", 102),
    ("CN(C)CCCOc1ccccc1NC1=C(Cl)C(=O)C(Nc2ccccc2OCCCN(C)C)=C(Cl)C1=O", -20.6),
    ("CC(=O)Nc1ccc(S(=O)(=O)N/N=C(\\C)c2ccc(C)cc2C)cc1", 106),
    ("C=CCn1c(SCC(=O)Nc2ccc(C(=O)/C=C/c3cc(OC)c(OC)c(OC)c3)cc2)nnc1-c1cc(-c2ccc(Cl)cc2)nc2ccccc12", 93.1),
    ("Nc1nc(Cl)nc2c1ncn2C1O[C@H](CO)[C@@H](O)[C@@H]1F (stereo partly drawn)", 3.27),
    ("CN(C)CCOc1ccc(-c2nc3sccn3c2-c2ccnc(S(C)(=O)=O)n2)cc1", 103),
    ("OCC1OC(n2cnc3c(NCc4ccco4)ncnc32)C(O)C1O (stereo not drawn)", 23.1),
    ("NS(=O)(=O)Oc1ccc2c(ccn2C(=O)C23CC4CC(CC(C4)C2)C3)c1", 104),
    ("COC(=O)C1OC1c1cc([N+](=O)[O-])ccc1OC (stereo not drawn)", 109),
]

---

test system: NCI-H23 lung; assay: NCI-60 one-dose screen, 48 h; conditions: 10 µM
This is part of a sample that, as a whole, favours compounds with a hit. Of some 83,000 tested, about 20% had one in any assay. Activity calls are given as the source filed them. How the source made its calls: active means growth percent below 10; inactive means the rest.
Outcomes: T for active, F for inactive

# COMPOUND, TARGET_OR_SYSTEM, CLASS
records = [
    ("O=C(CN1CCN(C(=O)c2ccccc2)CC1)Nc1ccccc1SCc1ccccc1", "NCI-H23 lung", "F"),
    ("COc1ccc(Nc2cnc3cc(NS(=O)(=O)c4ccc(C)cc4)ccc3n2)cc1", "NCI-H23 lung", "F"),
    ("COc1ccc(C(c2ccc(OCCN(C)C)cc2)c2cc3ccccc3c3ccccc23)cc1 (centres undefined)", "NCI-H23 lung", "F"),
    ("CC[C@@H](C(=O)[C@H](C)[C@H](O)[C@@H](C)[C@H]1O[C@H]([C@@H](CC)C(=O)O)CC[C@H]1C)C1O[C@]2(C=C[C@@H](O)[C@]3(CC[C@@](C)([C@H]4CC[C@](O)(CC)[C@H](C)O4)O3)O2)[C@H](C)C[C@@H]1C (some centres undefined)", "NCI-H23 lung", "F"),
    ("O=[N+]([O-])c1ccc(NCSc2ccc(Cl)cc2)cc1", "NCI-H23 lung", "F"),
    ("O=[N+]([O-])c1cc(Cl)cc(Cl)c1O", "NCI-H23 lung", "F"),
    ("COc1cc(C2CC(c3cc(Cl)c(C)cc3O)=NN2c2ccc(S(N)(=O)=O)cc2)cc(OC)c1OC (centres undefined)", "NCI-H23 lung", "T"),
    ("CC(C)CCN(CCC(C)C)CC(=O)Nc1ccc(S(=O)(=O)c2ccc(NC(=O)CN(CCC(C)C)CCC(C)C)cc2)cc1", "NCI-H23 lung", "F"),
    ("COc1cc2cc(Oc3ccc(NC(=O)c4ccccc4)cc3)c(C)nc2cc1OC", "NCI-H23 lung", "F"),
    ("COc1ccc2nc(-c3ccc(Cl)cc3)cc(-c3nnc(SC/C(=N\\O)c4ccccc4)n3-c3ccccc3)c2c1", "NCI-H23 lung", "F"),
    ("Cc1ccc(/C=C2/C(=O)N(C)c3ccc(S(=O)(=O)Nc4ccc(C(C)(C)C)cc4)cc32)s1", "NCI-H23 lung", "F"),
    ("COc1ccc(/C=C2\\CCCC3C2=Nc2ccccc2NC3c2ccc(OC)cc2)cc1 (centres undefined)", "NCI-H23 lung", "F"),
    ("CCCCCCCCCCCCCCCCCC[n+]1ccc2c(C)c3c(c(C)c2c1)c1cc(O)ccc1n3CC", "NCI-H23 lung", "T"),
    ("COc1ccc(Cl)cc1Nc1nc(C(F)(F)F)ccc1C(=O)N/N=C/c1ccc(Cl)cc1", "NCI-H23 lung", "F"),
    ("CNS(=O)(=O)Oc1ccc(-c2ccc3occc3c2)cc1", "NCI-H23 lung", "F"),
    ("COc1ccc(-c2nn(-c3cccc(Cl)c3)cc2C=C(C#N)C#N)cc1", "NCI-H23 lung", "T"),
    ("COc1cccc(-c2nc3sccn3c2-c2cccc(S(C)(=O)=O)c2)c1", "NCI-H23 lung", "F"),
    ("C=CCn1c(SCC(=O)Nc2ccc(C(=O)/C=C/c3cc(OC)c(OC)c(OC)c3)cc2)nnc1-c1cc(-c2ccc(Cl)cc2)nc2ccccc12", "NCI-H23 lung", "F"),
    ("O=C1CSC(=S)N1/N=C/c1ccc(Cl)s1", "NCI-H23 lung", "F"),
    ("C/C=C/C1=CN2C(=O)c3cc(OC4OC(C)C(NC)C(C)(O)C4O)c(C)c(O)c3N=C[C@@H]2C1 (some centres undefined)", "NCI-H23 lung", "T"),
    ("CCNc1nc(C(F)(F)F)nc2c1sc(=S)n2-c1ccccc1", "NCI-H23 lung", "F"),
    ("CCOC(=O)c1sc2ncnc(Nc3ccc4c(cnn4C(=O)Nc4ccc(C)c(Cl)c4)c3)c2c1C", "NCI-H23 lung", "F"),
    ("CN1CCN(CCC(=O)Nc2cccc(-n3cc(-c4ccncc4)c(-c4ccc(Cl)c(O)c4)n3)c2)CC1", "NCI-H23 lung", "F"),
    ("COc1ccc(-c2cc(-c3ccccc3)nc(SCCCCCCC(=O)NO)n2)cc1", "NCI-H23 lung", "F"),
]

---

system: MALME-3M melanoma; assay: NCI-60 one-dose screen, 48 h; conditions: 10 µM
The panel holds about 83,000 compounds, 20% with a hit somewhere; the sample as a whole holds those more often. Active and inactive are the calls of the source. How the source made its calls: active means growth percent below 10; inactive means the rest.
Outcomes: YES for active, NO for inactive

# COMPOUND, TARGET_OR_SYSTEM, CLASS
measured = [
    ("CC(=O)C1CCC2C3CC=C4CC(SC(=N)N)CCC4(C)C3CCC12C (centres undefined)", "MALME-3M melanoma", "YES"),
    ("N#CC1=CC2CN(Cc3ccccc3)C1C1C(=O)N(c3ccccc3)C(=O)C21 (centres undefined)", "MALME-3M melanoma", "NO"),
    ("COc1cc(NC(=O)Nc2cnc(Nc3ccc(N4CCOCC4)cc3)nc2Oc2cccc(OC)c2)cc(OC)c1", "MALME-3M melanoma", "YES"),
    ("Cc1c2cnccc2c(C)c2c1oc1ccccc12", "MALME-3M melanoma", "NO"),
    ("COc1cc(/C=C/c2cc(/C=C/c3ccc(O)c(OC)c3)n(C(=O)Nc3ccccc3Cl)n2)ccc1O", "MALME-3M melanoma", "YES"),
    ("CCn1cc(CNc2ccc(C(=O)Nc3ccc4ccccc4c3)cc2)c(C)n1", "MALME-3M melanoma", "NO"),
    ("Cc1c(O)c(=O)ccn1C1CCC(CC2CCC(n3ccc(=O)c(O)c3C)CC2)CC1 (centres undefined)", "MALME-3M melanoma", "NO"),
    ("O=C(Nc1ccccc1)Nc1ncnc2c1ncn2-c1ccccc1", "MALME-3M melanoma", "NO"),
    ("O=C(O)c1cc([N+](=O)[O-])ccc1Oc1ccccc1", "MALME-3M melanoma", "NO"),
    ("COc1cc(/C=C2\\CCCC3=C2NC(N)=NC3c2cc(OC)c(OC)c(OC)c2)cc(OC)c1OC (centres undefined)", "MALME-3M melanoma", "YES"),
    ("COc1ccc(/C=C2\\CCCC3C2=Nc2ccccc2NC3c2ccc(OC)cc2)cc1 (centres undefined)", "MALME-3M melanoma", "NO"),
    ("O=[N+]([O-])c1cc(Cl)cc(Cl)c1O", "MALME-3M melanoma", "NO"),
    ("CS(=O)(=O)c1nccc(-c2c(-c3cccc(OCCc4ccccc4)c3)nc3sccn23)n1", "MALME-3M melanoma", "NO"),
    ("N#CCc1csc(Cc2ccccc2)n1", "MALME-3M melanoma", "NO"),
    ("C#C[C@]1(O)CCC2C3CCc4cc(OC5CCCC5)ccc4C3CC[C@@]21C (some centres undefined)", "MALME-3M melanoma", "NO"),
    ("C/C=C/CSC(C)(C)C(=O)NC", "MALME-3M melanoma", "NO"),
    ("COc1cc2cc(Oc3ccc(NC(=O)c4ccccc4)cc3)c(C)nc2cc1OC", "MALME-3M melanoma", "NO"),
    ("CN(C)CCCSc1ccccc1NC1=C(Cl)C(=O)C(Nc2ccccc2SCCCN(C)C)=C(Cl)C1=O", "MALME-3M melanoma", "YES"),
    ("COc1ccc(-c2nn(-c3cccc(Cl)c3)cc2C=C(C#N)C#N)cc1", "MALME-3M melanoma", "NO"),
    ("Cc1ccc2nc(Cl)c(-c3nc4ccccc4o3)cc2c1", "MALME-3M melanoma", "NO"),
    ("COc1ccc(/C(=N\\N)C(=O)c2ccccc2)cc1 (tested in a mixture with another compound)", "MALME-3M melanoma", "NO"),
    ("C1CN(CC2CCC(CN3CCOCC3)O2)CCO1 (centres undefined)", "MALME-3M melanoma", "YES"),
    ("CCOC(=O)c1cc(C(=O)c2cc(OC)cc(OC)c2)n2nc(C)ccc12", "MALME-3M melanoma", "NO"),
    ("CNC(=O)c1cc(Oc2ccc3c(c2)sc2nc(-c4ccc(N)cc4)cn23)ccn1", "MALME-3M melanoma", "NO"),
]
